Tested on: SF-539 CNS
measurement_description: NCI-60 one-dose screen, 48 h (100 = growth as untreated, 0 = no growth, -100 = all killed)
recorded_conditions: 10 µM unless noted
The panel holds about 83,000 compounds, 20% with a hit somewhere; the sample as a whole holds those more often.
Each record is given fulfilled if its reported growth is strictly below 90%. Records at or above 90% are given not fulfilled.

Field: example entries. Status: answers known.
O=C(CN1C(=O)/C(=C/c2ccc(Cl)cc2)SC1=S)NCCCN1CCOCC1 :: not fulfilled
O=C(COc1ccc(-c2nc3cc(Cl)c(Cl)cc3[nH]2)cc1)N=Nc1c(O)[nH]c2ccccc12 :: fulfilled
O=C1/C(=C/c2ccc(Cl)cc2)SC(=S)N1CCc1ccc(O)cc1 :: fulfilled
COc1ccc(C(=O)COc2ccc(/C=C3\Oc4ccc(OC)cc4C3=O)cc2)cc1 :: not fulfilled
COc1ccc2cc(-c3nn(-c4ccc(C(=O)O)cc4)cc3CO)ccc2c1 :: not fulfilled

Dear reviewer, please state whether "COc1cc2c(cc1O)CC[C@@H]1[C@@H]2CC[C@]2(C)[C@@H](OCCN(C)C)CC[C@@H]12" has growth strictly beneath 90%.
fulfilled

Item: Nc1n[nH]c2ccc([C@@H]3Nc4cc5c(cc4[C@H]4C6CCC(C6)[C@@H]34)C(=O)NC5)cc12 (some centres undefined)
fulfilled

Item: O=C1NC(=O)C(c2ccc(Cl)cc2Cl)N1 (centres undefined)
not fulfilled
